Assay: Toxicity liver stage against HepG2, at 10uM
Type: cell-based
Set-up: test concentration 10 uM, cell line HepG2-A16-CD81EGFP
Details: human, HepG2-A16-CD81EGFP cells; read-out: INHIBITION
Reported cytotoxicity at 10 µM values follow for various compounds
Dear colleague, please return just the value in %, with no unit written.

Below, 3 compounds whose answers are already recorded.
Cc1cccc(C2(C(=O)NS(=O)(=O)c3cnn(C)c3)CCCC2)c1 ... -3.62
CN(C)c1cc(CNC(=O)Nc2ccc(C#N)cc2)ccn1 ... -5.66
CCOCC1(CNCc2cc(O)c3cc(C)ccc3n2)CC1 ... -9.19

Challenge: Find the measured cytotoxicity at 10 µM of `CCNc1nc(-c2cccnc2)c(-c2ccnc(NS(C)(=O)=O)n2)s1` and report it.
Response given: -12.3

Challenge: Output measured cytotoxicity at 10 µM for this item: `N[C@H]1CN(CCCOc2ccccc2)C[C@@H]1C1CC1`
Response given: 0.147

Challenge: Name the recorded cytotoxicity at 10 µM of the compound listed here: CN(C)CC1(O)CCN(S(=O)(=O)c2ccc(Cl)cc2)C1 (stereo unspecified)
Response given: -13.9

###

Overview of reported cytotoxicity at 10 µM across a group of compounds:
Assay: Toxicity liver stage against HepG2, at 10uM
Type: cell-based
Design: test concentration 10 uM, cell line HepG2-A16-CD81EGFP
Settings: human, HepG2-A16-CD81EGFP cells; read-out: INHIBITION
Give the value in % but do not write % after it.

Please review the entries below; each comes with its answer.
CC(=O)N1CCCCC1c1cc(C(=O)N2CCOCC2)[nH]n1 (stereo unspecified) ... -3.68
CCc1nnc2n1CCN(C(=O)c1cc3ccc(F)cc3nc1C)C2 ... -9.37
O=C1CCC(C(=O)N2CCOC(Cc3ccccc3Cl)C2)=NN1 (stereo unspecified) ... -0.108
Cn1c(N)c2c(=O)n(C)c(-c3ccccc3)cc2c(C#N)c1=O ... 1.57
CN(Cc1noc(C2CC2)n1)C1CCN(CCn2cccn2)C1 (stereo unspecified) ... -4.32

// next item, cytotoxicity at 10 µM requested
Challenge: Supply recorded cytotoxicity at 10 µM for CCOCC1CN(Cc2cccs2)Cc2nn(C)cc21 (stereo unspecified) here.
Response given: -75.2

###

Each entry below lists one item and its recorded cytotoxicity at 10 µM value.
Experiment: Toxicity liver stage against HepG2, at 10uM
Assay type: cell-based
Design: test concentration 10 uM, cell line HepG2-A16-CD81EGFP
Conditions: human, HepG2-A16-CD81EGFP cells; read-out: INHIBITION
Give your result in % as a bare value.

Below, 2 compounds whose answers are already recorded.
Cc1ccc(NC(=O)c2ccc(=O)n(CC(=O)NC3CCCC3)n2)cc1 ... -3.63
O=C1CC2(CCN(C(=O)Cc3cc4c(cc3Cl)OCCO4)C2)C(=O)N1 (stereo unspecified) ... 12.7

Challenge: Quote cytotoxicity at 10 µM reported for CC(C)C(=O)N1CCCC1C(=O)Nc1cc(C(F)(F)F)ccc1F (stereo unspecified) please.
Response given: -0.359

Challenge: Return the recorded cytotoxicity at 10 µM value; entry: `Cc1csc(-c2cccc(NC(=O)N3CCOCC3)c2)n1`
Response given: -6.35

Challenge: Supply cytotoxicity at 10 µM value. Item: COC(=O)C(C)(C)NC(=O)C1CC(=O)N(CC2CC2)C1 (stereo unspecified)
Response given: -142

Challenge: Please report the measured cytotoxicity at 10 µM for `Cc1csc(N2CCCN(Cc3noc(C)n3)CC2)n1`
Response given: -4.26

Challenge: For the compound `Cc1cnccc1-n1nc(C(C)C)nc1CS(C)(=O)=O` , report cytotoxicity at 10 µM.
Response given: 0.999

Challenge: Answer with reported cytotoxicity at 10 µM of CN1CCN(C(=O)CCCc2ccccc2)CC(O)(Cn2cccn2)C1 (stereo unspecified)
Response given: -1.93

Challenge: Let me know recorded cytotoxicity at 10 µM for `Cc1noc(C)c1CNC(=O)N1CCC(CO)CC1` , thanks.
Response given: -8.08

Challenge: Identify measured cytotoxicity at 10 µM corresponding to `CN1C(=O)c2cccc(NC(=O)c3ccc4c(c3)OCCO4)c2C1=O`
Response given: 4.02

Challenge: Determine its reported cytotoxicity at 10 µM: `CCNC(=O)[C@@H]1C[C@@H](NC(=O)c2cccnc2O)CN1Cc1ccsc1`
Response given: -5.39

###

Measured cytotoxicity at 10 µM by item
Experiment: Toxicity liver stage against HepG2, at 10uM
Assay type: cell-based
Design: test concentration 10 uM, cell line HepG2-A16-CD81EGFP
Settings: human, HepG2-A16-CD81EGFP cells; read-out: INHIBITION
Record the value in %, omitting the unit from your answer.

Challenge: Supply measured cytotoxicity at 10 µM of `Cc1cc(CN(C)C(=O)NCc2ccccn2)no1` in your reply.
Response given: 1.62

Challenge: Give a short answer stating reported cytotoxicity at 10 µM for `CN1CCN(C[C@@H]2CN(Cc3c(Cl)cncc3Cl)C[C@@H]2CO)CC1` .
Response given: -124

Challenge: Tell me cytotoxicity at 10 µM reported for `CN(C)C(=O)c1ccn(COc2ccccc2Cl)n1`
Response given: 6.91

Challenge: Identify measured cytotoxicity at 10 µM corresponding to COC(=O)c1ccc2ccn(CC3COCCO3)c(=O)c2c1 (stereo not drawn)
Response given: 3.26

Challenge: Give the reported value of cytotoxicity at 10 µM for this record: `CC(C)CCN1CCc2c(C(=O)N(C)Cc3ccccn3)nn(C)c2C1`
Response given: -0.449

###

Experiment: Toxicity liver stage against HepG2, at 10uM
Format: cell-based
Parameters: test concentration 10 uM, cell line HepG2-A16-CD81EGFP
Settings: human, HepG2-A16-CD81EGFP cells; read-out: INHIBITION
Reported cytotoxicity at 10 µM values for a set of compounds
Provide the reading as a plain figure in %.

Sample answers from the record:
COc1cccc(CC(=O)N2CCCC(n3nc(C)cc3C)C2)c1 (stereo unspecified) ... 0.441
COc1ccc(-c2nnc([C@H]3CCN(C4CCC4)C3)o2)cc1 ... -8.1
CC(C)C(=O)NCCc1nc(-c2ccncc2)n[nH]1 ... 7.78

Challenge: Tell me cytotoxicity at 10 µM reported for `c1cc(CNCCc2cn3ccccc3n2)c2c(c1)OCCCO2`
Response given: 15.2

Challenge: Supply recorded cytotoxicity at 10 µM for `CO[C@H]1CN(C(=O)c2ccc(-c3ccccc3)[nH]2)CC[C@H]1N` here.
Response given: 3.64

Challenge: Identify measured cytotoxicity at 10 µM corresponding to `Cc1noc(C)c1CN(C)CCC(=O)N1CCc2sccc2C1`
Response given: 0.265

###

// reported cytotoxicity at 10 µM per item
Assay: Toxicity liver stage against HepG2, at 10uM
Assay type: cell-based
Parameters: test concentration 10 uM, cell line HepG2-A16-CD81EGFP
Conditions: human, HepG2-A16-CD81EGFP cells; read-out: INHIBITION
Give just the number in %; leave the unit off.

Cc1noc(-c2ccc(N3CCN(Cc4nccn4C)CC3)nc2)n1 ... 3.19
CCOC(=O)CCNC(=O)N1CCCC(CNC(=O)c2cccs2)C1 (stereo unspecified) ... 0.712

Challenge: For `COc1c(C)cnc(CN2CCC(N(C)C(=O)C3CC3)CC2)c1C` , write its cytotoxicity at 10 µM.
Response given: -2.74

Challenge: Tell me cytotoxicity at 10 µM reported for CNC(=O)NCC1CCC2(CCN(C(=O)c3ccccn3)CC2)CO1 (stereo unspecified)
Response given: -102

Challenge: Fill in reported cytotoxicity at 10 µM for this entry: CCC(O)CN(Cc1ccccc1)S(=O)(=O)c1cnc(C)s1 (stereo unspecified)
Response given: -42.5

Challenge: Tell me measured cytotoxicity at 10 µM for O=C(NC1CC1)c1ccnc(N2CCOC(c3ccc(Cl)c(Cl)c3)C2)c1 (stereo unspecified) please.
Response given: 14

Challenge: Please indicate cytotoxicity at 10 µM recorded for `NC(=O)Nc1cccc(C(=O)N(Cc2ccncc2)C2CC2)c1`
Response given: -2.34

Challenge: Quote cytotoxicity at 10 µM reported for `CN1CCCN(C(=O)c2cc3c(s2)CCN3C(=O)C2CC2)CC1` please.
Response given: 6.74

Challenge: For the compound `CC(=O)Nc1cc(C2CC2)nn1-c1nc(C)c(C)c(=O)[nH]1` , report cytotoxicity at 10 µM.
Response given: -1.39

Challenge: // fetch cytotoxicity at 10 µM given entry `Cc1cccnc1CN1CCN(Cc2ccc(-c3cc[nH]n3)o2)CC1`
Response given: -3.57

Challenge: Look up and state reported cytotoxicity at 10 µM for `CC(=O)Nc1ccc(Oc2ccc3c(c2)OCO3)nc1`
Response given: -8.6

###

Assay: Toxicity liver stage against HepG2, at 10uM
Assay type: cell-based
Set-up: test concentration 10 uM, cell line HepG2-A16-CD81EGFP
Conditions: human, HepG2-A16-CD81EGFP cells; read-out: INHIBITION
Reported property: cytotoxicity at 10 µM (%)
Give the quantity in %, number only.

Consider the worked cases shown below.
CCc1noc(CN2CCN(C(=O)C3CC3)CC2)n1 ... -1.88
CC(=O)NC1CCN(c2c(C#N)cnc3c(C)cc(F)cc23)CC1 ... 7.72
O=C(Cc1csc(-c2ccco2)n1)N1CCN(c2ccccc2O)CC1 ... -10.7
CCCc1n[nH]c(C2CN(C(=O)CCCn3cccn3)CCO2)n1 (stereo not drawn) ... -7.87
Cc1ccccc1C1(CN)CCOCC1 ... 7.93
Cc1ccc(N(CCC#N)C(=O)CN2CCCC2c2ccsc2)cc1C (stereo not drawn) ... -11.2
Cn1cc(C(=O)N2CCCC2c2noc(C3CC3)n2)c2ccccc21 (stereo not drawn) ... -0.249
CNC(=O)c1ccc(CNC(=O)NCCN(C)C2CCCC2)cc1 ... -7.66

Challenge: Supply recorded cytotoxicity at 10 µM for `CC(C)CS(=O)(=O)N1C[C@@H]2C[C@H](C(=O)N3CCN(C)CC3)[C@H](C1)O2` here.
Response given: 0.508

Challenge: Report cytotoxicity at 10 µM, nothing else, for this molecule: `O=C1NC[C@@]2(C(=O)O)CN(Cc3ccc(Oc4ccccc4)cc3)C[C@@H]12`
Response given: -8.39

Challenge: Give the measured cytotoxicity at 10 µM for Nc1cc(CC2COc3ccccc3C2)ccn1 (stereo not drawn)
Response given: -0.911
